Where do these numbers come from? They come from patent US7919508B2.

- Study Target: D1 receptor (Homo sapiens)
- Construct: expressed in transfected cells; host or cells: D1 transfected CHO cell line
- Sequence (P21728 whole entry): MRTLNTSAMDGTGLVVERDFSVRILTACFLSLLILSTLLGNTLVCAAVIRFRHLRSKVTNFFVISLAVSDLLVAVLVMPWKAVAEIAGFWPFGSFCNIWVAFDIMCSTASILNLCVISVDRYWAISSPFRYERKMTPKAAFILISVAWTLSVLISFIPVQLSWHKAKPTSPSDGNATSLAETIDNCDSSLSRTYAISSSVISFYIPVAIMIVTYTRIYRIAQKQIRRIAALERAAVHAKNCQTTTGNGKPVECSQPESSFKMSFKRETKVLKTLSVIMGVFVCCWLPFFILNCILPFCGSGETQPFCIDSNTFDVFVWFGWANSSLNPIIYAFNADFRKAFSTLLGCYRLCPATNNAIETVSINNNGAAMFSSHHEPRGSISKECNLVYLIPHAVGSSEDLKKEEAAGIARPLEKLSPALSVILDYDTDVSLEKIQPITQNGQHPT
- Method Description: D1 Activation Adenylyl Cyclase Assay (cAMP FlashPlate, D1 transfected CHO cell line)
- Type: cell-based
- Measurement Conditions: agonist activity at the D1 receptor, adenylate cyclase assay, D1 transfected CHO cell line; read-out: D1 EC50
Where a name gives a salt, the structure may show the parent alone.
Quantity Kind: log10(EC50) (log10 of the value in nM)
Response schema: value (number) is log10 of EC50 in units of nM.

Consider Cc1ccc2c(c1O)C[C@@H](C1CCN(S(=O)(=O)c3ccc4ccccc4c3)CC1)O[C@H]2CN [Example 147, hydrochloride] . Its measured log10(EC50) is 2.60

Consider CNC[C@@H]1O[C@H](C2CCN(Cc3ccc(F)cc3)CC2)Cc2c1ccc(C)c2O [Example 95, dihydrochloride] . Its measured log10(EC50) is 2.40

Consider CNC[C@@H]1O[C@H](C2CCN(Cc3ccc(OC)cc3)CC2)Cc2c1ccc(C)c2O [Example 99, dihydrochloride] . Its measured log10(EC50) is 1.34

Consider COc1cccc(NC(=O)N2CCC([C@@H]3Cc4c(ccc(C)c4O)[C@H](CN)O3)CC2)c1 [Example 125] . Its measured log10(EC50) is 1.78

Consider Cc1ccc2c(c1O)C[C@@H](C1CCN(Cc3ccsc3)CC1)O[C@H]2CN [Example 67, dihydrochloride] . Its measured log10(EC50) is 0.95

Consider Cc1ccc2c(c1O)C[C@@H](C1CCN(Cc3ccc(Cl)cc3)CC1)O[C@H]2CN [Example 58, dihydrochloride] . Its measured log10(EC50) is 1.00

Consider CNC[C@@H]1O[C@H](C2CCN(Cc3ccc(F)c(F)c3)CC2)Cc2c1ccc(C)c2O [Example 100, dihydrochloride] . Its measured log10(EC50) is 1.78

---

For each entry below, report its log10(Ki) value.
- Study Target: human dopamine D1 receptor (Homo sapiens, UniProt P21728)
- Construct: A 1.4 Kb Hind III to Xho I fragment was subcloned into the vector pMMLV; expressed in transfected cells; host or cells: CHO cells, clone CHO-D1M#9 (plasmid pHD1MMLV), membranes
- Sequence (P21728 whole entry, the tested form may be a part): as the sequence (P21728 whole entry) above
- Method Description: [3H]-SCH-23390 binding to cloned human dopamine D1 receptors (CHO cell membranes)
- Measurement Conditions: competitive binding, [3H]-SCH-23390, cloned human D1 in CHO membranes; read-out: D1 affinity Ki
Where a name gives a salt, the structure may show the parent alone.
Response schema: value (number) is log10 of Ki in units of nM.

Consider Cc1ccc2c(c1O)C[C@@H](C1CCN(Cc3ccc(F)c(F)c3)CC1)O[C@H]2CN [Example 63, dihydrochloride] . Its measured log10(Ki) is 0.83

Consider Cc1ccc2c(c1O)C[C@@H](C1CCN(CC3CCCCC3)CC1)O[C@H]2CN [Example 34, dihydrochloride] . Its measured log10(Ki) is 1.67

Consider CCN(CC)C[C@@H]1O[C@H](C2CCN(Cc3ccccc3)CC2)Cc2c1ccc(C)c2O [Example 170] . Its measured log10(Ki) is 3.22

Consider Cc1ccc2c(c1O)C[C@@H](C1CCN(Cc3csc4ccccc34)CC1)O[C@H]2CN [Example 87, dihydrochloride] . Its measured log10(Ki) is 1.38

Consider Cc1ccc2c(c1O)C[C@@H](C1CCN(Cc3cn(C)c4ccccc34)CC1)O[C@H]2CN [Example 90, trihydrochloride] . Its measured log10(Ki) is 1.63

Consider CCC(CN1CCC([C@@H]2Cc3c(ccc(C)c3O)[C@H](CNC)O2)CC1)c1ccccc1 (stereo partly shown) [Example 194, dihydrochloride] . Its measured log10(Ki) is 1.73

Consider CNC[C@@H]1O[C@H](C2CCN(Cc3ccc(C)cc3)CC2)Cc2c1ccc(C)c2O [Example 101, dihydrochloride] . Its measured log10(Ki) is 1.96
